Hello, the source for this data is patent US7407984B2, in case you need it.

# Tested on: P. falciparum FCR-3 strain (ATCC30932)
# method-summary: Growth inhibition screening test of P. falciparum (FCR-3 strain)
# Format: cell-based
# applied-conditions: Plasmodium falciparum, 72 h, read-out: EC50 (M) P. falciparum FCR-3
quantity-measured: EC50 (M)
Quick reminder: number only, in M, skip the unit.

stdin: I'm curious: which EC50 was measured for CCN(CC)CCCC(C)Nc1ccnc2cc(Cl)ccc12 (stereo not shown) [Chloroquine, chloroquine] tested on P. falciparum FCR-3 strain (ATCC30932)?
stdout: 1.8e-08

---

# Test system: chloroquine-resistant malaria parasite of P. falciparum K-1 strain
# method-summary: Growth inhibition screening test of chloroquine-resistant P. falciparum (K-1 strain)
# Type: cell-based
# applied-conditions: K1 chloroquine-resistant strain, 72 hours culture; read-out: EC50 (M) Chloroquine-resistant P. falciparum K1
quantity-measured: EC50 (M)
Quick reminder: number only, in M, skip the unit.

stdin: Would you kindly share the measured EC50 for OCCCCCCC1COOC2(CCCCCCCCCCC2)OOC1 ?
stdout: 2e-08
